tested on: CYP2D6; experiment: In vitro rat liver microsome experiment, CYP2D6 (probe DM); type: in vitro ADME; settings: probe substrate in rat liver microsomes
Reported Endpoint: Km (µM)
Numbers only here, please. The scale is µM.

Problem: Give the reported Km for COc1ccc2c(c1)[C@]13CCCC[C@@H]1[C@H](C2)N(C)CC3 (system: CYP2D6).
Result: 28.9

----------
Target: UniProt:P04799
Sequence (P04799 1-513): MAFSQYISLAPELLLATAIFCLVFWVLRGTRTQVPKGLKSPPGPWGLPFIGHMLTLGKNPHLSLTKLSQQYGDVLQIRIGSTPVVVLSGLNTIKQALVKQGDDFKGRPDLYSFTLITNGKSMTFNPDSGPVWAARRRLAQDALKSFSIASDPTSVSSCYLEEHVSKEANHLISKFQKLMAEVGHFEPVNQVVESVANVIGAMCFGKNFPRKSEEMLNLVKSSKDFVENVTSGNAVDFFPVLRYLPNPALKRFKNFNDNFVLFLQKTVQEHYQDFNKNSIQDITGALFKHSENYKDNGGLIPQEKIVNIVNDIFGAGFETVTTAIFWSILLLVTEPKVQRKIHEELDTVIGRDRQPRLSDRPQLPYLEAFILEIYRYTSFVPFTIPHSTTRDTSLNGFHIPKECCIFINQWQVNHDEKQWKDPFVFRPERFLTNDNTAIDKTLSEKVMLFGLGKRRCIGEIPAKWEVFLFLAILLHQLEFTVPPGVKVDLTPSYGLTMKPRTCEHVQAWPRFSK
Reported Endpoint: IC50

Problem: For COc1cc(-c2oc3cc(OC)c(OC)c(O)c3c(=O)c2OC)ccc1O [CHR, chrysosplenetin] , what is its reported IC50?
Result: 4.61 µM

----------
tested on: CYP3A; assay: In vitro rat liver microsome experiment, CYP3A (probe MDZ); assay type: in vitro ADME; conditions: rat, rat liver microsomes, probe midazolam (MDZ) 2.5; 0.5 mg/mL RLM, MDZ 2.5, 5.0, 10.0 μM, CHR 0, 2, 4, 8 μM; second plot of Lineweaver–Burk intercepts
Reported Endpoint: Ki at 15 min

Problem: For COc1cc(-c2oc3cc(OC)c(OC)c(O)c3c(=O)c2OC)ccc1O , what is its reported Ki at 15 min?
Result: 3.71 µM

----------
test: Pharmacokinetics of ART in rats in absence and presence of CHR; type: in vivo; details: male; ART in rat plasma; ART 5 mg/kg intramuscular on day 3, 1 h after 3-day oral CHR (5, 10, 20 mg/kg for 1:1, 1:2, 1:4) or CMC-Na; n = 5, mean ± SD; read-out: CLz (converted)
Reported Endpoint: clearance (mL/min/kg)
Numbers only here, please. The scale is mL/min/kg.

Problem: For C[C@@H]1CC[C@H]2[C@@H](C)C(=O)O[C@@H]3O[C@@]4(C)CC[C@@H]1[C@]32OO4 , what is its reported clearance?
Result: 0.217

----------
tested on: CYP2A; assay: in vitro; conditions: rat
Reported Endpoint: Km at 60 min (µM)
Numbers only here, please. The scale is µM.

Problem: For O=c1ccc2ccccc2o1 [CA, coumarin, reference compound] , what is its reported Km at 60 min?
Result: 8.9

----------
target: CYP2E1 (Rattus norvegicus, UniProt P05182); test: In vitro rat liver microsome experiment, CYP2E1 (probe CLZ); type: in vitro ADME; details: rat liver microsomes; CLZ 15 μM; GraphPad Prism 5.0
Sequence (P05182 whole entry): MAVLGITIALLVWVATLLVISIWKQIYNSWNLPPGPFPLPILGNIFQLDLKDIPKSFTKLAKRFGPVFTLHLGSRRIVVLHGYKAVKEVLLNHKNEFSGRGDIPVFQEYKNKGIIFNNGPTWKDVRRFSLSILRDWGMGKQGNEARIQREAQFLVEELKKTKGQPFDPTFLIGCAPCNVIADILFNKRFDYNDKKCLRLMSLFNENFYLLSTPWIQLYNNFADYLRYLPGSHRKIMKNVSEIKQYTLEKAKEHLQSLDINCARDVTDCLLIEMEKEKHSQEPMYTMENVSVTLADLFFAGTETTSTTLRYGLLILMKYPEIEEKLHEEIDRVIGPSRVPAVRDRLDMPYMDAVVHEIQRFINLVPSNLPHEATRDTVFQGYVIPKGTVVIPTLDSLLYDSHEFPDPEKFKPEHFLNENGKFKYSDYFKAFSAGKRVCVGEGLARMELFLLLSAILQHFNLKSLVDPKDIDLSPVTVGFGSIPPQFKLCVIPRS
Reported Endpoint: pIC50
# log scale: pIC50 equals minus log10 of the concentration in mol/L

Problem: For COc1cc(-c2oc3cc(OC)c(OC)c(O)c3c(=O)c2OC)ccc1O [CHR, chrysosplenetin] , what is its reported pIC50?
Result: 4.55
